Target: beta-catenin (human)
Sequence (B6V8E6 146-665 limits assumed): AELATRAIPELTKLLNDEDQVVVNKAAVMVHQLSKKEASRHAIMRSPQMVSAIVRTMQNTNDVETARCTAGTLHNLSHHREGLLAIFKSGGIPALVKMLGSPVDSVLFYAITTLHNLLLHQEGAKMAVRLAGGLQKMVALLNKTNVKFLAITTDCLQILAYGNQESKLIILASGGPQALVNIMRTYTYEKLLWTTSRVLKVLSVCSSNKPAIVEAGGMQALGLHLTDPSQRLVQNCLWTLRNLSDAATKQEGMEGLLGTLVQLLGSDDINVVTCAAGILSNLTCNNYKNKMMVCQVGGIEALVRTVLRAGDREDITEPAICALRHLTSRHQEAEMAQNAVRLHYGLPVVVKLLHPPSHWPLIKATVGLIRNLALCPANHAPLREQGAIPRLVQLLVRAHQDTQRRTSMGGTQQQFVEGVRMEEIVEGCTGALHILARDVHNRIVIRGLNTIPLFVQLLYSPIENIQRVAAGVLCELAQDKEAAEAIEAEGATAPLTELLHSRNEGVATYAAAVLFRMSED
Test: fluorescence polarization
*1 amine or outer side, *2 acyl side, *3 side chain or, on linkers, in order; H or OH if unused. Bridges are numbered along the chain shown (N, C = ends). Primed or numbered codes have the meaning given here. [ ]: non-standard residue; d: D form. B5(4) = 2-amino-2-(pent-4-en-1-yl)hept-6-enoic acid, stapled through each of its two olefin groups with other olefin-containing amino acid residues, O=C(C(CCCC=[*:3])(CCCC=[*:4])N[*:1])[*:2]; PyrS2″ = (S)-3-amino-1-((pent-4-en-1-yloxy)carbonyl)pyrrolidine-3-carboxylic acid (olefin stapling residue), C=CCCCOC(=O)N1CC[C@@](N[*:1])(C(=O)[*:2])C1; PyrS2(3) = (S)-3-amino-1-((pent-4-en-1-yloxy)carbonyl)pyrrolidine-3-carboxylic acid, olefin residue, C=CCCCOC(=O)N1CC[C@@](N[*:1])(C(=O)[*:2])C1; B5(3) = 2-amino-2-(pent-4-en-1-yl)hept-6-enoic acid, two olefin arms, C=CCCCC(CCCC=C)(N[*:1])C(=O)[*:2]; TriAzLys″ = azidolysine residue closed into triazole staple, O=C([C@H](CCCCn1cc([*:3])nn1)N[*:1])[*:2]; 2F3MeF″ = aromatic residue, Cc1cccc(C[C@H](N[*:1])C(=O)[*:2])c1F; Phe(3-COOH) = N[C@@H](Cc1cccc(C(=O)O)c1)C(=O)O; 2F3MeF = Cc1cccc(C[C@H](N[*:1])C(=O)[*:2])c1F; Bta = N[C@@H](Cc1csc2ccccc12)C(=O)O; αAllylPro = C=CC[C@@]1(C(=O)O)CCCN1; tBuAla = CC(C)(C)C[C@H](N)C(=O)O; BztA″ = aromatic residue; CyLeu = not defined here; AsnR = not defined here; GlnR = not defined here; sAla = not defined here; PL3 = not defined here; B5 = not defined here
Parameter IC50: see the listing below.

Some binders with known IC50 results, for comparison:
binder	IC50
Ac-[αAllylPro]D[tBuAla][B5]D[Phe(3-COOH)][CyLeu]AFK[PyrS2″][2F3MeF″][BztA″][GlnR]LS-NH2 (bridge 10-14; not fully specified (bridges); printed as Ac-PL3-Asp-Npg-B5-Asp-3COOHF-CyLeu-Ala-Phe-Lys*3-PyrS2-2F3MeF-BztA-GlnR*3-Leu-Ser-NH2; reading uncertain; also: Lys10 and GlnR14 marked *3) [I-141]	< 50 nM
Ac-[αAllylPro]D[tBuAla][B5(3)]D[Phe(3-COOH)]AAFK[PyrS2(3)][2F3MeF″][Bta][AsnR]-NH2 (bridge 10-14; not fully specified (bridges); printed as Ac-PL3-Asp-Npg-B5-Asp-3COOHF-Ala-Ala-Phe-Lys*3-PyrS2-2F3MeF-BztA-AsnR*3-NH2; reading uncertain) [I-56]	< 50 nM

Now let's try a different one.
Query: IC50; subject: Ac-[PL3]D[tBuAla][B5(4)]D[Phe(3-COOH)]AAF[TriAzLys″][PyrS2″][2F3MeF][Bta][sAla]-NH2 (triazole 10-14; not fully specified (bridges); printed as Ac-PL3-Asp-Npg-B5-Asp-3COOHF-Ala-Ala-Phe-TriAzLys*3-PyrS2-2F3MeF-BztA-sAla*3-NH2; reading uncertain) [I-22]
< 50 nM
